Cited source: PubChem BioAssay

Examples of compounds with documented slope follow.
# testTarget: Alpha-2C adrenergic receptor (Homo sapiens) (UniProt P18825)
# Sequence (P18825 whole entry, looked up): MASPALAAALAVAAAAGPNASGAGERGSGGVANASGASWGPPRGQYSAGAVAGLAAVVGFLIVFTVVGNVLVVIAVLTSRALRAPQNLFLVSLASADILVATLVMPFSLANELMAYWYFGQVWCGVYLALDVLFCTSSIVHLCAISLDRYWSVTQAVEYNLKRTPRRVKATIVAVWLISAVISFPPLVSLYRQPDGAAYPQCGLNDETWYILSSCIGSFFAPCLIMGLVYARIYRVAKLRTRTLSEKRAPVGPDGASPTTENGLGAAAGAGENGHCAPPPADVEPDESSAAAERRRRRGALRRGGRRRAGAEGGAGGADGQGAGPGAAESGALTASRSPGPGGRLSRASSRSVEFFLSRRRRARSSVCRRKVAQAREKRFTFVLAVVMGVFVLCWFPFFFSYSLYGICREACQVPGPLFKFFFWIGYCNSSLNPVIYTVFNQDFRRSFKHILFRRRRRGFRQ
# assayOverview: compounds altering alpha2C-coupled GIRK flux – cell-based, HEK293 alpha2C/GIRK1/2, thallium flux, primary screen (AID 624);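 also: slope of fluorescence ratio to pre-addition baseline per second over 15 to 24 s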
# testContext: thallium flux BTC fluorescence, at 10 µM, actives lie on both sides
Enter a number only.

Query: Could you tell me which slope is on file for O=C1CC(N2CCN(c3ccc(Cl)c(Cl)c3)CC2)C(=O)N1 (stereo not drawn) ?
Result: 0.00625

###

# testTarget: Voltage-gated potassium channel subunit beta-2 (Rattus norvegicus)
# assayOverview: inhibitors of rat Kvbeta2 reductase activity – biochemical, NADPH fluorescence, primary screen (AID 622);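 also: slope of raw intensity against log time taken from 70 to 1610 s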
# testContext: recombinant KvBeta, 4-cyanobenzaldehyde reduction, at 10 µM, hits give high values
assayMetric: fluorescence slope
// return a plain number; no unit text

Below are worked cases with known answers.
{"columns": ["compound", "fluorescence slope"],
 "data": [
  ["O=C(CN1CCN(Cc2ccccc2F)C1=O)NCc1cccnc1", -0.502],
  ["O=C(Cn1cnc2c(nnn2Cc2ccc(Cl)cc2)c1=O)NCC1CCCO1 (stereo not drawn)", -0.522],
  ["COCCN1CCN(c2c(C)c(C)nc3cc(-c4cccc(OC)c4)nn23)CC1", -0.567]
]}

Query: # query: fluorescence slope | item `O=C(O)c1cccc(NC(=O)C23CC4CC(C2)CC(n2cnc(Cl)n2)(C4)C3)c1` | system: Voltage-gated potassium channel subunit beta-2 (Rattus norvegicus)
Result: -0.506

Query: Could you share what fluorescence slope was measured for `O=C(CCn1c(=O)oc2ccccc21)N1CCCCCC1` , tested on Voltage-gated potassium channel subunit beta-2 (Rattus norvegicus)?
Result: -0.316

Query: Value wanted: fluorescence slope (Voltage-gated potassium channel subunit beta-2 (Rattus norvegicus)) of entry O=C(Cn1nnc2ccccc2c1=O)NC1CCCc2ccccc21 (stereo not drawn)
Result: -0.486

Query: Lab request: please report fluorescence slope under test system Voltage-gated potassium channel subunit beta-2 (Rattus norvegicus) for CC1CCc2nn(CC(=O)NCCCN3CCOCC3)cc2C1 (stereo not drawn)
Result: -0.578

Query: Provide the documented fluorescence slope with Voltage-gated potassium channel subunit beta-2 (Rattus norvegicus) as the system for `Cc1nc2ccc(S(=O)(=O)NCC(=O)N3CCCCC3)cc2s1`
Result: -0.488

###

# assayOverview: endothelial E-selectin expression blockers – imaging, HUVEC, immunofluorescence, MLSMR starter and 10KST1 sets, primary screen (AID 487);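 also: signal is fraction of cell area covered by stained E-selectin grains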
# testContext: HUVEC TNFalpha-induced E-selectin immunofluorescence imaging, at 2 µM; hits give high values
The source made the active and inactive calls.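 The calls were made as follows: active = visually confirmed hit in the image check and inhibition above 20%; inconclusive = visually confirmed hit but inhibition not above 20%; inactive = no visual hit in the image check.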
Property: inhibition; scope: individual compounds

{"columns": ["compound", "reportedValue"],
 "data": [
  ["CC1CCCC(C)N1C(=O)CSc1nnc(-c2cccs2)o1 (stereo unspecified)", "-9.9% (inactive)"],
  ["COc1ccc(Cn2nnnc2C(c2ccccc2OC)N2CCC(C(N)=O)CC2)cc1 (stereo unspecified)", "-39.5% (inactive)"],
  ["O=C(NCc1ccc2c(c1)OCO2)C1CCCN(S(=O)(=O)c2cccnc2)C1 (stereo unspecified)", "-65.3% (inactive)"],
  ["Cc1ccc(CN2C(=O)CCC2C(=O)NC2CCCC2)cc1 (stereo unspecified)", "-19% (inactive)"],
  ["COc1ccc(CCNC(=O)c2ccc(N3CCCC3=O)cc2)cc1OC", "-26% (inactive)"]
]}

Query: Reported inhibition, compound `Fc1cccc2sc(N3CCOCC3)nc12` : ____
Result: 6.6% (inactive)

###

# testTarget: Voltage-gated potassium channel subunit beta-2 (Rattus norvegicus)
# assayOverview: enhancers of rat Kvbeta2 NADPH turnover – biochemical, NADPH fluorescence, primary screen (AID 623);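 also: fluorescence intensity change per second fitted from 20 to 320 s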
# testContext: Recombinant KvBeta, NADPH fluorescence decrease slope, 10 min; at 10 µM; hits give low values
Each entry below lists one item and its recorded NADPH fluorescence slope value.
Output spec: single numeric token, no unit.

Here is how some compounds turned out for NADPH fluorescence slope.
{"columns": ["testSmiles", "testTarget", "NADPH fluorescence slope"],
 "data": [
  ["c1ccc2c(c1)nc(NCCN1CCOCC1)c1nncn12", "Voltage-gated potassium channel subunit beta-2 (Rattus norvegicus)", "-4e-05"],
  ["O=C(Nc1ccc(OC(=O)c2ccco2)cc1)c1ccco1", "Voltage-gated potassium channel subunit beta-2 (Rattus norvegicus)", "-1e-05"],
  ["COc1ccc(CCNc2oc(COc3ccccc3Cl)nc2C#N)cc1OC", "Voltage-gated potassium channel subunit beta-2 (Rattus norvegicus)", "-5.7e-05"],
  ["Nc1nc(SCc2ccc(Cl)cc2Cl)n[nH]1", "Voltage-gated potassium channel subunit beta-2 (Rattus norvegicus)", "-4.5e-05"],
  ["COc1cccc(C(=O)OCn2nnc3ccccc3c2=O)c1", "Voltage-gated potassium channel subunit beta-2 (Rattus norvegicus)", "4.3e-05"]
]}

Query: Field: NADPH fluorescence slope (Voltage-gated potassium channel subunit beta-2 (Rattus norvegicus)). Entry: `CC(=O)NS(=O)(=O)c1ccc(NC(=O)c2ccccc2F)cc1`
Result: -3.8e-05

###

# assayOverview: TLR3 IRF3 reporter activation blockers – cell-based, poly I:C stimulus, luciferase, 10K MLSCN set, primary screen (AID 602277)
# testContext: HEK293-TLR3 RL24 IRF3 luciferase reporter, at 10 µM, hits give high values
inhibition vs 20%: at or above is Yes, below is No.

{"columns": ["compound", "labelValue"],
 "data": [
  ["COC(=O)CN(c1ccc(OC)cc1)S(=O)(=O)c1ccc(OC)c(OC)c1", "Yes"],
  ["Cc1nnc(SCc2ccccc2)n1N", "No"],
  ["Cc1nnc(SCCn2c(Br)nc3c2c(=O)n(C)c(=O)n3C)s1", "No"]
]}

Query: Hi, just wondering whether `COCCCNC(=O)CCn1c(=O)c2ccccc2n(CC(=O)Nc2ccc(C)cc2C)c1=O` shows inhibition of 20% or higher.
Result: No

Query: Is it the case that CC1CN(c2ccc(Oc3ccccc3)cc2)c2nc3c(c(=O)n(CC(N)=O)c(=O)n3C)n2C1 (stereo unspecified) has inhibition reaching or exceeding 20%?
Result: Yes

Query: Given `CCCNc1nc(N2CCOCC2)nc(N2CCOCC2)n1` , state whether its inhibition is at least 20%.
Result: No

Query: Test whether the compound `COc1ccccc1C(=O)NCCNC(=O)c1ccco1` records inhibition of 20% or higher.
Result: No

###

Measured inhibition of individual entries
# assayOverview: TLR3 IRF3 reporter activation blockers – cell-based, poly I:C stimulus, luciferase, 10K MLSCN set, primary screen (AID 602277)
# testContext: HEK293-TLR3 RL24 IRF3 luciferase reporter, at 10 µM, hits give high values
Number in %, nothing else.

Use these answered entries as a reference point.
{"columns": ["compound", "unitAbbrev", "inhibition"],
 "data": [
  ["Nc1nnc(SCc2cc3c(cc2Cl)OCO3)s1", "%", 9.87],
  ["Cc1cccc(NC(=O)CCN2CCN(C/C=C/c3ccccc3)CC2)c1", "%", 6.07],
  ["COc1cccc2sc(NC(=O)c3ccc(S(=O)(=O)N4CCOCC4)cc3)nc12", "%", 9.3],
  ["CC(C)(C)c1ccc(C(=O)Nc2cnccn2)cc1", "%", -138],
  ["CC(=O)Nc1ccc(S(=O)(=O)Nc2nc3c(s2)CCCC3)cc1", "%", -2.08],
  ["CCC1CCc2c(sc3ncnc(N4CCOCC4)c23)C1 (configuration not stated)", "%", 13.8],
  ["CCOc1ccc(NC(=O)c2ccccc2O)cc1", "%", -110],
  ["CCCCOC(=O)CNc1nnc(SCC(=O)OCC)[nH]c1=O", "%", -3.08],
  ["O=C(c1cc2n(n1)C(C(F)(F)F)CC(c1ccc(Cl)cc1)N2)N1CCCC1 (configuration not stated)", "%", 16.5],
  ["Cc1c(Cl)cccc1N1C(=O)c2ccccc2C1=O", "%", 15.5]
]}

Query: Tell me the measured inhibition of `Cc1nc(NCc2ccc3c(c2)OCO3)c2oc3ccccc3c2n1` , please.
Result: -12

Query: Which inhibition value belongs to `c1ccc(Cc2ccc(OCCn3cncn3)cc2)cc1` ?
Result: -0.13

###

# assayOverview: reduction of polyQ htt aggregates in cells – imaging, exon1htt(103Q)mCFP cells, high-content imaging, primary screen (AID 483);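 also: compound exposure lasted 3 days before fixation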
# testContext: exon1htt(103Q)mCFP cell line, aggregate imaging, at 2 µM; hits give high values
assayMetric: inhibition of aggregation (%)
Report the figure in % without appending any unit label.

These recorded examples may help you get a feel for the data.
{"columns": ["molecule", "inhibition of aggregation (%)"],
 "data": [
  ["COc1ccccc1-c1nnc(SCc2ccccn2)n1C", -5.8],
  ["COc1cccc(-n2c(SCC(=O)Nc3cc(C)on3)nc3c([nH]c4ccccc43)c2=O)c1", -10.2],
  ["CN1CCN(C(=O)C2CCN(S(=O)(=O)c3ccc4c(c3)oc(=O)n4C)CC2)CC1", 8.3]
]}

Query: Data request, read-out inhibition of aggregation, for C=CCN1C(=O)C2(c3ccccc31)C1CCCC=C1C(C#N)=C(N)C2(C#N)C#N (stereo unspecified)
Result: 10.4

Query: Fill in: inhibition of aggregation of O=C(Nc1ccc(Cl)c(C(F)(F)F)c1)N1CCCC(O)C1 (stereo unspecified) is ___
Result: -4.8

Query: // returns reported inhibition of aggregation for input `CCSc1nc2ccccc2n1CC(N)=O`
Result: -4

Query: Requested read-out: inhibition of aggregation. Entry: `Cn1c(=O)c2c(nc(NCCCO)n2CCc2ccccc2)n(C)c1=O`
Result: -11.3

Query: May I ask what inhibition of aggregation has been recorded for `CCOc1ccccc1N(CC(=O)N1CCOCC1)S(=O)(=O)c1ccccc1` ?
Result: 0.9

Query: What value of measured inhibition of aggregation is listed for `CCN(CCCNC(=O)COc1cc(=O)n(CC)c2ccccc12)c1ccccc1` ?
Result: 1.3

Query: Entry `Cc1sc2ncn3ncnc3c2c1C` has what inhibition of aggregation?
Result: -1.7

Query: Sample CC(C)CN(C(=O)COC(=O)Cc1n[nH]c(=O)c2ccccc12)C1CCS(=O)(=O)C1 (stereo unspecified) — what was its inhibition of aggregation?
Result: 14.7
